Source: patent US20090306133A1

# pIC50 annotations
Target: Human recombinant Acetyl-CoA Carboxylase 1 (ACC1) (Homo sapiens, UniProt Q13085)
Assay: Assay X: ACC1 inhibition, inorganic phosphate (malachite green)
Type: biochemical
Conditions: Assay X: 37° C., 1.5 h, 5 min pre-incubation
Description: Human recombinant Acetyl-CoA Carboxylase 1 and Acetyl-CoA Carboxylase 2 (ACC1 and ACC2) were assayed by determining the amount of inorganic phosphate (Pi) generated. […] After 1.5 h the reaction was stopped by addition of 74 μL of water followed by extensive mixing, split and transfer of 2×40 μL to a read-plate encompassing 30 μL distilled H2O per well (n=2→n=4). […]
pIC50: −log10 of the molar value.

compound	pIC50
CN1CCC(COc2cc(C(=O)NC[C@H]3CC[C@H](CNC(=O)OC(C)(C)C)CC3)c3ccccc3n2)CC1 [Example 216]	5.45
CC(C)(C)OC(=O)NC[C@H]1CC[C@H](CNC(=O)c2cc(-c3ccc(NCCOCCO)nc3)nc3ccccc23)CC1 [Example 155]	5.96
CN(CCF)CCC1CCN(c2cc(C(=O)NC[C@H]3CC[C@H](CNC(=O)OC(C)(C)C)CC3)c3ccccc3n2)CC1 [Example 245]	5.85
CC(C)(C)OC(=O)NC[C@H]1CC[C@H](CNC(=O)c2cc(N3CCC(CCN4CC(O)C4)CC3)nc3ccccc23)CC1 [Example 233]	5.99

====

Target: Human recombinant Acetyl-CoA Carboxylase 2 (ACC2) (Homo sapiens, UniProt O00763)
Sequence (O00763 whole entry): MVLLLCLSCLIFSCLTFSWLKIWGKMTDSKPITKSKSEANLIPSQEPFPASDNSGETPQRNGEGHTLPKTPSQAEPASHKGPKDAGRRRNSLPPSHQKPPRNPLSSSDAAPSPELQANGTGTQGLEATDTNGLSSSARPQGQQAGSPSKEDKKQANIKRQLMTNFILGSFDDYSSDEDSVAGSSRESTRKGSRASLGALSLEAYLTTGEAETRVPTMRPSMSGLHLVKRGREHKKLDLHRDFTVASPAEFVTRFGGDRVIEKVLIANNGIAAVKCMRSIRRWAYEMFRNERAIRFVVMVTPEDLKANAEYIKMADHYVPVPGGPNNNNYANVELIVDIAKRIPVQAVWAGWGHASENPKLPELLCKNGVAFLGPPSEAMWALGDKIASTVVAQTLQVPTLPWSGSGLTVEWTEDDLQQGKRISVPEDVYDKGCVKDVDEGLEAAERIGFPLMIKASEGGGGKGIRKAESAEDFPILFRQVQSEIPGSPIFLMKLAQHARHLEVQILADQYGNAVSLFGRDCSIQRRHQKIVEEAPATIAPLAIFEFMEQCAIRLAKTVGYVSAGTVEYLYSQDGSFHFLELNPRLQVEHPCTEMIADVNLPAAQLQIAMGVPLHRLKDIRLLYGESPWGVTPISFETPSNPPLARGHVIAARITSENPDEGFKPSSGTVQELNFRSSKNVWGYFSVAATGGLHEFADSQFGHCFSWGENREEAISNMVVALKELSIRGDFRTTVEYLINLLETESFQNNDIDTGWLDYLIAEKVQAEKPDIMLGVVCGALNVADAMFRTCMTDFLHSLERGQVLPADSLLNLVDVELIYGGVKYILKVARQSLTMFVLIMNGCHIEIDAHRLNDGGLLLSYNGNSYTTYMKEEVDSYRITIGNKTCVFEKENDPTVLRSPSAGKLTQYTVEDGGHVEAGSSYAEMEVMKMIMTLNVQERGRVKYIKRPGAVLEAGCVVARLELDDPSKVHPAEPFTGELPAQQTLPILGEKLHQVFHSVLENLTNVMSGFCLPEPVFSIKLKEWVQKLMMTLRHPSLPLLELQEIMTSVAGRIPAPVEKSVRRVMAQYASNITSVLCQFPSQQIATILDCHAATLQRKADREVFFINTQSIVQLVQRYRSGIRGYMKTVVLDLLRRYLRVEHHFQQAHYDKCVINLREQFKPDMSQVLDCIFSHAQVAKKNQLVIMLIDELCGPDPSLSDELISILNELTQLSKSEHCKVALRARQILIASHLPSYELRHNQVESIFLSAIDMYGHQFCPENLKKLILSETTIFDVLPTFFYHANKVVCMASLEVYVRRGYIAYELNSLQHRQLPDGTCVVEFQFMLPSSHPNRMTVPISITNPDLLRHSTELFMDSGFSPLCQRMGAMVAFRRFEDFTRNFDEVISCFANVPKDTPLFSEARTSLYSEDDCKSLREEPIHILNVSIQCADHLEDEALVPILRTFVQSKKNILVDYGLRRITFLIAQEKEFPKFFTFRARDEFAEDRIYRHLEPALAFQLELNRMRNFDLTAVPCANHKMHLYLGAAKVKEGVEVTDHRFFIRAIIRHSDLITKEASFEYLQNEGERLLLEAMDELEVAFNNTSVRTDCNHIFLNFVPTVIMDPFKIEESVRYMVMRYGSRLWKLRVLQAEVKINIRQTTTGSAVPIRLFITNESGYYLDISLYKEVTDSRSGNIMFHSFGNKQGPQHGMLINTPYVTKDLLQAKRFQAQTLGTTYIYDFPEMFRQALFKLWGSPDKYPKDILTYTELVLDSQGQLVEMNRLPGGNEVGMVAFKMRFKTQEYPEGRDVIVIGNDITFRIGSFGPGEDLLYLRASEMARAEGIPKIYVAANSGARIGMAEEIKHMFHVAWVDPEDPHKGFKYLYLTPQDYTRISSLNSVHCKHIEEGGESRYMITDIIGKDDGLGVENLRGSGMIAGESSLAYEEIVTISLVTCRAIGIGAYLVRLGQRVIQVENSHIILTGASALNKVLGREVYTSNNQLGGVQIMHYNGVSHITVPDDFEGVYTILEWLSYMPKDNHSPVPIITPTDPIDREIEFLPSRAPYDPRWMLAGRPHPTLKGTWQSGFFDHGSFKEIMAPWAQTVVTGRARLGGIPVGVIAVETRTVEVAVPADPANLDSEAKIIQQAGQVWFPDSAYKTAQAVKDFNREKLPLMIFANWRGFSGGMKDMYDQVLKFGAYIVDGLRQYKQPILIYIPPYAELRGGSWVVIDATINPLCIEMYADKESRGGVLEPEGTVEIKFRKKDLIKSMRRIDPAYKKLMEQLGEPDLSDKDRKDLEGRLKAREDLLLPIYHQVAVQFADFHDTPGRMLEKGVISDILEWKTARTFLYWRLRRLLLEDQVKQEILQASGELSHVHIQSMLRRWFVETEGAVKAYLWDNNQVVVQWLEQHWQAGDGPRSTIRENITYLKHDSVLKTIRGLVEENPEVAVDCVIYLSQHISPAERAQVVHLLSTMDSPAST
Assay: Assay X: ACC2 inhibition, inorganic phosphate (malachite green)
Assay type: biochemical
Details: Assay X: 37° C., 1.5 h, 5 min pre-incubation
endpoint_label: IC50 (nM)

molecule	quantity_unit	readout_number
CN1CCC(COc2cc(C(=O)NC[C@H]3CC[C@H](CNC(=O)OC(C)(C)C)CC3)c3ccccc3n2)CC1 [Example 216]	nM	720
CC(=O)NCC1CCN(c2cc(C(=O)NC[C@H]3CC[C@H](CNC(=O)OC(C)(C)C)CC3)c3ccccc3n2)CC1 [Example 191]	nM	970
CC[C@H](Nc1ccc(-c2cc(C(=O)NC[C@H]3CC[C@H](CNC(=O)OC(C)(C)C)CC3)c3ccccc3n2)cn1)C(N)=O [Example 169]	nM	650
CN1CCN(c2ccc(-c3cc(C(=O)NC[C@H]4CC[C@H](CNC(=O)OCc5nccs5)CC4)c4ccccc4n3)cn2)CC1 [Example 130]	nM	440
CC(C)(C)OC(=O)NC[C@H]1CC[C@H](CNC(=O)c2cc(-c3ccc(OCC4CCOC4)nc3)nc3ccccc23)CC1 (stereo partly shown) [Example 173]	nM	410
CN1CCN(C2CCN(c3cc(C(=O)NC[C@H]4CC[C@H](CNC(=O)OC(C)(C)C)CC4)c4ccccc4n3)CC2)CC1 [Example 214]	nM	2240
COC1CN(CCC2CCN(c3cc(C(=O)NC[C@H]4CC[C@H](CNC(=O)OC(C)(C)C)CC4)c4ccccc4n3)CC2)C1 [Example 229]	nM	110
CC(C)(C)OC(=O)NC[C@H]1CC[C@H](CNC(=O)c2cc(N3CCC(CC(O)CN4CCOCC4)CC3)nc3ccccc23)CC1 (relative stereo) [Example 207]	nM	130
O=C(NC[C@H]1CC[C@H](CNC(=O)c2cc(-c3ccc(NCCO)nc3)nc3ccccc23)CC1)O[C@H]1CCOC1 [Example 200]	nM	1200
CC(C)(C)OC(=O)NC[C@H]1CC[C@H](CNC(=O)c2cc(N3CCC(CCNCCF)CC3)nc3ccccc23)CC1 [Example 244]	nM	150
CN(C)CCC1CCN(c2cc(C(=O)NC[C@H]3CC[C@H](CNC(=O)OCC(C)(C)C)CC3)c3ccccc3n2)CC1 [Example 212]	nM	120
CN1CCN(c2ccc(-c3cc(C(=O)NC[C@H]4CC[C@H](CNC(=O)OCc5cnccn5)CC4)c4ccccc4n3)cn2)CC1 [Example 131]	nM	1590
CN(C)CCC1CCN(c2cc(C(=O)NC[C@H]3CC[C@H](CNC(=O)OC4CCOCC4)CC3)c3ccccc3n2)CC1 [Example 224]	nM	680

====

Molecular target: Human recombinant Acetyl-CoA Carboxylase 1 (ACC1) (Homo sapiens, UniProt Q13085)
Experiment: Assay Y: ACC1 inhibition, inorganic phosphate (Malachite Green)
Type: biochemical
Settings: Assay Y: room temperature, 3 hr, 15 min preincubation
pIC50: −log10 of the molar value.

molecule	qualifier_operator	pIC50
COc1ccc(-c2cc(C(=O)NC[C@H]3CC[C@H](CNC(=O)OC(C)(C)C)CC3)ccn2)cc1 [Example 42]	=	4.89
CC(C)(C)OC(=O)NC[C@H]1CC[C@H](CNC(=O)c2cc(-c3cc[n+]([O-])cc3)nc3ccccc23)CC1 [Example 94]	=	5.26
COc1ccc(-c2cc(C(=O)NC[C@H]3CC[C@H](CNC(=O)OC(C)(C)C)CC3)ccn2)c(OC)c1 [Example 47]	=	4.85
CCOC(=O)NC[C@H]1CC[C@H](CNC(=O)c2cc(-c3ccncc3)nc3ccccc23)CC1 [Example 60]	=	5.50
CCCN(C[C@H]1CC[C@H](CNC(=O)OC(C)(C)C)CC1)S(=O)(=O)c1ccc2ccccc2c1 [Example 87]	<	4.70
CCOC(=O)NC[C@H]1CC[C@H](CNC(=O)c2cc(-c3ccc(OCC)cc3)nc3ccccc23)CC1 [Example 30]	<	4.70
CC(C)(C)OC(=O)NC[C@H]1CC[C@H](CNC(=O)c2ccnc(-c3cccc(Cl)c3)c2)CC1 [Example 51]	<	4.70
CC(=O)Nc1ccc(S(=O)(=O)NC[C@H]2CC[C@H](CNC(=O)OC(C)(C)C)CC2)cc1 [Example 73]	<	4.70
C=CCN(C[C@H]1CC[C@H](CNC(=O)OC(C)(C)C)CC1)S(=O)(=O)c1ccc2ccccc2c1 [Example 84]	<	4.70
CC(C)(C)OC(=O)NC[C@H]1CC[C@H](CNS(=O)(=O)c2cccc3cnccc23)CC1 [Example 76]	<	4.70
CSc1ccc(-c2cc(C(=O)NC[C@H]3CC[C@H](CNC(=O)OC(C)(C)C)CC3)c3ccccc3n2)cc1 [Example 24]	=	5.87
CC(C)(C)OC(=O)NC[C@H]1CC[C@H](CNC(=O)c2cc(-c3ccc(N4CC[C@@H](O)C4)nc3)nc3ccccc23)CC1 [Example 147]	=	5.59
CC(C)(C)OC(=O)NC[C@H]1CC[C@H](CNC(=O)c2cc(-c3ccc(F)cc3)nc3ccccc23)CC1 [Example 14]	=	6.16
CCOC(=O)NC[C@H]1CC[C@H](CNC(=O)c2cc(-c3ccc(SC)cc3)nc3ccccc23)CC1 [Example 29]	=	5.39
CN(C)c1ccc(-c2cc(C(=O)NC[C@H]3CC[C@H](CNC(=O)OC(C)(C)C)CC3)c3ccccc3n2)cn1 [Example 11]	=	5.91

====

Biological target: Human recombinant Acetyl-CoA Carboxylase 1 (ACC1) (Homo sapiens, UniProt Q13085)
Assay: Assay Y: ACC1 inhibition, inorganic phosphate (Malachite Green)
Assay type: biochemical
Conditions: Assay Y: room temperature, 3 hr, 15 min preincubation
pIC50: −log10 of the molar value.
# pIC50 annotations

compound	study_system	qualifier_operator	pIC50
CNS(=O)(=O)c1ccc(-c2cc(C(=O)NC[C@H]3CC[C@H](CNC(=O)O[C@H]4CCOC4)CC3)c3ccccc3n2)cc1	Human recombinant Acetyl-CoA Carboxylase 1 (ACC1) (Homo sapiens, UniProt Q13085)	=	5.47
CN(C[C@H]1CC[C@H](CNC(=O)OC(C)(C)C)CC1)C(=O)c1cc(-c2ccccc2)nc2ccccc12	Human recombinant Acetyl-CoA Carboxylase 1 (ACC1) (Homo sapiens, UniProt Q13085)	=	5.32
CN(C)CCCOc1cc(C(=O)NC[C@H]2CC[C@H](CNC(=O)OC(C)(C)C)CC2)c2ccccc2n1	Human recombinant Acetyl-CoA Carboxylase 1 (ACC1) (Homo sapiens, UniProt Q13085)	=	4.91
Cc1cc(C(=O)NC[C@H]2CC[C@H](CNC(=O)OC(C)(C)C)CC2)cc(-c2ccccc2)n1	Human recombinant Acetyl-CoA Carboxylase 1 (ACC1) (Homo sapiens, UniProt Q13085)	=	5.08
CCOC(=O)NC[C@H]1CC[C@H](CNC(=O)c2cc(-c3cnccn3)nc3ccccc23)CC1	Human recombinant Acetyl-CoA Carboxylase 1 (ACC1) (Homo sapiens, UniProt Q13085)	<	4.70
CC(=O)NCc1ccc(-c2cc(C(=O)NC[C@H]3CC[C@H](CNC(=O)OC(C)(C)C)CC3)c3ccccc3n2)cc1	Human recombinant Acetyl-CoA Carboxylase 1 (ACC1) (Homo sapiens, UniProt Q13085)	=	6.70
CC(C)(C)OC(=O)NC[C@H]1CC[C@H](CNC(=O)c2cc(-c3ccc(S(N)(=O)=O)cc3)nc3ccccc23)CC1	Human recombinant Acetyl-CoA Carboxylase 1 (ACC1) (Homo sapiens, UniProt Q13085)	=	6.42
CC(C)(C)OC(=O)NC[C@H]1CC[C@H](CNS(=O)(=O)c2ccc(Cl)c(Cl)c2)CC1	Human recombinant Acetyl-CoA Carboxylase 1 (ACC1) (Homo sapiens, UniProt Q13085)	<	4.70
COc1ccc(-c2cc(C(=O)NC[C@H]3CC[C@H](CNC(=O)OC(C)(C)C)CC3)ccn2)cn1	Human recombinant Acetyl-CoA Carboxylase 1 (ACC1) (Homo sapiens, UniProt Q13085)	=	5.12
CC(C)(C)OC(=O)NC[C@H]1CC[C@H](CNC(=O)c2cc(N3CCC(CCO)CC3)nc3ccccc23)CC1	Human recombinant Acetyl-CoA Carboxylase 1 (ACC1) (Homo sapiens, UniProt Q13085)	=	5.71
CC(C)(C)OC(=O)NC[C@H]1CC[C@H](CN(CCc2ccccc2)S(=O)(=O)c2ccc3ccccc3c2)CC1	Human recombinant Acetyl-CoA Carboxylase 1 (ACC1) (Homo sapiens, UniProt Q13085)	<	4.70
CC(C)(C)OC(=O)NC[C@H]1CC[C@H](CNC(=O)c2cc(-c3ccc(NCCO)nc3)nc3ccccc23)CC1	Human recombinant Acetyl-CoA Carboxylase 1 (ACC1) (Homo sapiens, UniProt Q13085)	=	6.44
CC(C)(C)OC(=O)NC[C@H]1CC[C@H](CNS(=O)(=O)c2ccc(-c3ccccc3)cc2)CC1	Human recombinant Acetyl-CoA Carboxylase 1 (ACC1) (Homo sapiens, UniProt Q13085)	<	4.70
COC[C@H](C)OC(=O)NC[C@H]1CC[C@H](CNC(=O)c2cc(-c3ccc(N4CCN(C)CC4)nc3)nc3ccccc23)CC1 (stereo in doubt)	Human recombinant Acetyl-CoA Carboxylase 1 (ACC1) (Homo sapiens, UniProt Q13085)	=	5.57
